Below, each entry is listed with its recorded pIC50.
- study-system: MERTK (Homo sapiens)
- Sequence (Q12866 21-999): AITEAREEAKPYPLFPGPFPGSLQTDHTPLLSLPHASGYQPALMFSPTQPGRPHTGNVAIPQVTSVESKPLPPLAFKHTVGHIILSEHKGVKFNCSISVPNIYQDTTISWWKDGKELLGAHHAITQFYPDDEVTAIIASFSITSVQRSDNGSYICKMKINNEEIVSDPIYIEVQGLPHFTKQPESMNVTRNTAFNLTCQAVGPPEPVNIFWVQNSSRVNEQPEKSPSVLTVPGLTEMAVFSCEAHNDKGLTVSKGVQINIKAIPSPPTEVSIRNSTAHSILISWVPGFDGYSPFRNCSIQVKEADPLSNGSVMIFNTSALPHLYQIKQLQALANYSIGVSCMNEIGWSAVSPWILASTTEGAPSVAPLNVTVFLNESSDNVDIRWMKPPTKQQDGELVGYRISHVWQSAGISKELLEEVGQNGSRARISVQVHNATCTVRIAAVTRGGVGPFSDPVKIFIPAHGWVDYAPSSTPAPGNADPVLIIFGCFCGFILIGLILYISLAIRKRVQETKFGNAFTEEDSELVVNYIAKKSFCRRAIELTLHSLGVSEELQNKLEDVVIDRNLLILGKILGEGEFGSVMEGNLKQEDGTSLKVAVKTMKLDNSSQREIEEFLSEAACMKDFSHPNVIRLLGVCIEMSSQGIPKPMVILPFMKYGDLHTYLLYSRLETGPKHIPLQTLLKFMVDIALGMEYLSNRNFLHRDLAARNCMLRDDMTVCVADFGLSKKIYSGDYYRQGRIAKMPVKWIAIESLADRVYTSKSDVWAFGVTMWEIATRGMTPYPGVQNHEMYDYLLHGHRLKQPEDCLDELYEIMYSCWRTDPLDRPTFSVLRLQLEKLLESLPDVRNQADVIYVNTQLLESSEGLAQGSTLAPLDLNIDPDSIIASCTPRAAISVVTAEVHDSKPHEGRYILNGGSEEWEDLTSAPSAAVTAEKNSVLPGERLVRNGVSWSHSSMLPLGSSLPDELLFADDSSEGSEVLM
- protocol-details: MERTK enzymatic assay (Kinase Glo)
- Format: biochemical
- experimental-conditions: purified kinase, ATP 12 μM, read-out: MER Enzymatic Inhibition (%)
- Procedure: A purified kinase (AXL or MERTK) was incubated with a compound or DMSO (control) for 15 minutes in an assay buffer (25 mM Tri s pH 7.4, 10 mM MgCl2, 4 mM MnCl2, 2 mM DTT, 0.0100 BSA, 0.02% TritonX-100, 0.0100 Brij35 and 0.5 mM Na3VO4 for MERTK; and 40 mM Tri s pH 7.4, 20 mM MgCl2, 2 mM DTT, 0.01% BSA and 0.5 mM Na3VO4 for AXL). […] The mixture was incubated for 3 hours at 30° C. […]
pIC50: −log10 of the molar value.
readout-label: pIC50

CCOc1ccn(-c2ccc(F)cc2)c(=O)c1C(=O)Nc1ccc(Oc2ncnc3[nH]cc(-c4cccc(NC(C)=O)c4)c23)cc1 [Compound 2] :: 7.00 to 7.70
CCNc1cccc(-c2c(-c3cnn(C)c3)oc3ncnc(Oc4ccc(NC(=O)c5cccn(-c6ccc(F)cc6)c5=O)cc4)c23)c1 [Compound 177] :: 4.30 to 7.00
CCOc1ccn(-c2ccc(F)cc2)c(=O)c1C(=O)Nc1ccc(Oc2ncnc3[nH]cc(-c4cccc(N)c4)c23)cc1 [Compound 1] :: 7.00 to 7.70
CC(=O)Nc1cccc(-c2c(-c3cn[nH]c3)oc3ncnc(Oc4ccc(NC(=O)c5cccn(-c6ccc(F)cc6)c5=O)cc4)c23)c1 [Compound 40] :: 7.00 to 7.70
Cn1cc(-c2oc3ncnc(Oc4ccc(NC(=O)c5cccn(-c6ccc(F)c(F)c6)c5=O)cc4)c3c2-c2cccc(N)c2)cn1 [Compound 94] :: 7.00 to 7.70
Cn1cc(-c2oc3ncnc(Oc4ccc(NC(=O)c5cccn(-c6ccc(F)cc6)c5=O)cc4)c3c2-c2cccc(N3CCNCC3)c2)cn1 [Compound 33] :: > 7.70
Cn1cc(-c2oc3ncnc(Oc4ccc(NC(=O)c5cc(-c6ccc(F)cc6)on5)cc4)c3c2-c2cccc(N)c2)cn1 [Compound 115] :: 4.30 to 7.00
CN(C)Cc1cccc(-c2c(-c3cnn(C)c3)oc3ncnc(Oc4ccc(NC(=O)c5cccn(-c6ccc(F)c(Cl)c6)c5=O)cc4)c23)c1 [Compound 97] :: 7.00 to 7.70
CN(C)c1cccc(-c2c[nH]c3ncnc(Oc4ccc(NC(=O)c5cccn(-c6ccc(F)cc6)c5=O)cc4)c23)c1 [Compound 21] :: 4.30 to 7.00
Cn1cc(-c2oc3ncnc(Oc4ccc(NC(=O)c5cc6c(n(-c7ccccc7)c5=O)CCCC6=O)cc4)c3c2-c2cccc(N)c2)cn1 [Compound 61] :: 7.00 to 7.70
O=C(Nc1ccc(Oc2ncnc3[nH]cc(-c4cccnc4)c23)cc1)c1cccn(-c2ccc(F)cc2)c1=O [Compound 16] :: 4.30 to 7.00
CN(C)Cc1cccc(-c2n[nH]c3ncnc(Oc4ccc(NC(=O)c5cn(C)n(-c6ccc(F)cc6)c5=O)cc4)c23)c1 [Compound 139] :: 4.30 to 7.00
Nc1cccc(-c2n[nH]c3ncnc(Oc4ccc(NC(=O)c5cccn(-c6ccc(F)cc6)c5=O)cc4)c23)c1 [Compound 36] :: 4.30 to 7.00

The values you see were collected from patent US20260070911A1.
